# test-system: Muscarinic acetylcholine receptor M5 (Homo sapiens) (UniProt P08912)
# Sequence (P08912 whole entry, looked up): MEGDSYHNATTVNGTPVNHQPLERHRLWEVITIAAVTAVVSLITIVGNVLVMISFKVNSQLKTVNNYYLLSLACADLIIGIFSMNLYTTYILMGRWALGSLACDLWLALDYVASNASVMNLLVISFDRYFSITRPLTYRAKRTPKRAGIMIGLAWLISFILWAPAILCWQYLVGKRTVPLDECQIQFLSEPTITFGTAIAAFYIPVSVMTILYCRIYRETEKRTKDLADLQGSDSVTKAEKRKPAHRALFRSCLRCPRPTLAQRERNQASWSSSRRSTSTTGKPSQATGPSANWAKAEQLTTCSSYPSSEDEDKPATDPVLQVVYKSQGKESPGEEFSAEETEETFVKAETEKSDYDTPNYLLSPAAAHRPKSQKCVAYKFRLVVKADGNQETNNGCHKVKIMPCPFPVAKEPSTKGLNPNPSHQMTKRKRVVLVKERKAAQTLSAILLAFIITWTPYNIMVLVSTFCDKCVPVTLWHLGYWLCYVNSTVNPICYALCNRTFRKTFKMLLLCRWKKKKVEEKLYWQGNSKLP
# experimental-protocol: human M5 muscarinic receptor antagonists, primary screen, CHO cells, Fluo-8 calcium fluorescence (AID 624040);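 further: 0% = acetylcholine EC80 with DMSO and 100% = DMSO without agonist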
# measurement-setup: CHO-hM5 cells, ACh EC80, at 3 µM, active compounds read high
The campaign covered roughly 360,000 compounds. About 2,100 (0.58%) were called active. This is one part of a sample in which actives are shown more often than they occur.
Measured inhibition, listed per entry.
measured-quantity: inhibition (%)

>>> df
                                   compound  unit_text  data_value
0  CCOc1ccc(C(C)=O)cc1CSc1nnc(-c2ccncc2)n1CCOC          %          12
1  NC(=O)C1(N2CCCCC2)CCN(C2CC(=O)N(Cc3ccc(N4CCCC4=O)cc3)C2=O)CC1 (stereo not given)          %       -5.49
2  CC1C(=O)NC(=O)C1c1ccccc1 (stereo not given)          %        5.64
3  Cc1ccc(C(C(=O)NCc2ccco2)N(CC2CCCO2)C(=O)Cn2nnc3ccccc32)cc1 (stereo not given)          %       -3.06
4  COc1cc(C(=O)N2CCN(S(=O)(=O)c3ccc(C(C)C)cc3)CC2)ccc1OCC(=O)N1CCOCC1          %       -6.27
5  CC(C)NS(=O)(=O)c1ccc(OCC(=O)NC2CCCCCC2)cc1          %         1.3
6  CCC(C)(C)NC(=O)CN(C(=O)C(=O)Nc1ccc2c(c1)OCCO2)C(C)(C)CC          %        1.43
7  COc1ccc(C(C(=O)NCC2CCCO2)N(C(=O)Cn2nnc3ccccc32)c2ccc(NC(C)=O)cc2)cc1OC (stereo not given)          %       -5.21
8  CCOc1cc(C(C(=O)NCC2CCCO2)N(C(=O)Cn2nnc3ccccc32)c2cccc(OC)c2)ccc1O (stereo not given)          %        31.8
9  CC(C)c1ccc(NC(=O)COC(=O)c2ccc(CN3CCCC3=O)cc2)cc1          %        11.4

---

# test-system: Muscarinic acetylcholine receptor M5 (Homo sapiens) (UniProt P08912)
# experimental-protocol: human M5 muscarinic receptor antagonists, primary screen, CHO cells, Fluo-8 calcium fluorescence (AID 624040);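 further: 0% = acetylcholine EC80 with DMSO and 100% = DMSO without agonist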
# measurement-setup: CHO-hM5 cells, ACh EC80, at 3 µM, active compounds read high
Out of some 360,000 compounds screened, about 2,100 (0.58%) were called active. The sample holds actives, similar compounds and a random draw of the others, so the mix is not that of the screen.
measured-quantity: inhibition (%)

                                    compound  data_value
 0                 O=C(O)c1n[nH]nc1-c1ccccc1       -3.66
 1  CCc1nc2nc(C)c(NS(=O)(=O)c3ccc4c(c3)CCCC4)c(=O)n2[nH]1        17.6
 2  CC(=O)Nc1cccc(-c2ccnc3c2CC(C)(C(=O)NCc2ccccc2)O3)c1 (stereo not drawn)       -11.6
 3  CCC(C)(C)NC(=O)c1cc([N+](=O)[O-])ccc1N1CCCCC1        6.53
 4              COn1c(=O)c(=O)n(OC)c2ccccc21        6.69
 5  COc1ccc(-c2[nH]ncc2CN(C)Cc2cccnc2)c(F)c1       -5.23
 6  CCN(CC)S(=O)(=O)c1ccc(N(C)Cc2ccc(C(F)(F)F)cc2)nc1          29
 7  CCCC[C@@H]1CN=C(N)N1CCc1cc(C(F)(F)F)cc(C(F)(F)F)c1        32.4
 8  CCN(CC)S(=O)(=O)c1ccc(N(C)CCc2ccc(OC)c(OC)c2)nc1        3.43
 9  CCN(CC)S(=O)(=O)c1ccc(N(C)Cc2cccc(OC)c2OC)nc1        22.7
10      Cc1c(-c2ccccc2)nc(N)c(C#N)c1-c1cccs1         8.1
11  O=C(OCc1nnc(-c2ccccc2)o1)c1cc(=O)[nH]c2ccccc12        6.31
12  Cc1onc(-c2ccccc2)c1-c1nnc(COC(=O)c2ccc(N(C)C)cc2)o1        66.8
13              NC1=NC(=O)S/C1=C\c1ccc(O)cc1       -0.48
14  COc1ccc2[nH]c(=O)c(CN(Cc3cccnc3)S(=O)(=O)c3ccccc3F)cc2c1        27.3
15  O=C(OCc1nnc(-c2ccccc2)o1)c1ccc2c(c1)C(=O)N(CCc1ccccc1)C2=O        5.45
16  O=C(NCc1ccccc1)C1=C[C@@H](C2CCCCC2)C[C@@H](OCc2ccc(CO)cc2)O1        15.6
17     COc1ccccc1OCCNC(=O)CCNC(=O)c1ccccc1Cl        17.2
18  CC(=O)c1c(C)[nH]c(C(=O)COC(=O)c2cccc(S(=O)(=O)N(C)c3ccccc3)c2)c1C        74.2
19  CC1OC2C(OC1C)N(S(C)(=O)=O)CCN2S(C)(=O)=O (stereo not drawn)       -2.68
20  CC(C)CN(C(=O)CSc1ncnc2sccc12)C1CCS(=O)(=O)C1 (stereo not drawn)         1.5
21  N=c1n(Cc2ccc(Cl)cc2)c2ccccc2n1CC(O)c1ccco1 (stereo not drawn)        2.61
22  COc1cccc(N(CC(=O)NCc2ccccc2)C(=O)CCC(=O)Nc2nccs2)c1        9.51
23  CN(C)C1CN(Cc2cn(Cc3ccccc3)nn2)S(=O)(=O)C1 (stereo not drawn)         0.6
24  Cc1ccc(Cn2cc(CN3CC(N4CCN(C)CC4)CS3(=O)=O)nn2)cc1 (stereo not drawn)         0.4
25  O=C(CC(O)(C(F)(F)F)C(F)(F)F)Nc1ccc(Cl)c(Cl)c1        17.8
26  C=CC1=C(C(=O)O)N2C(=O)[C@@H](NC(=O)/C(=N/OCC(=O)O)c3csc(N)n3)[C@H]2SC1       -2.27
27        CC(C)(C)C(=O)/C(C#N)=C/c1ccc(O)cc1        4.34
